Measured values drawn from patent US20120251444A1 for this set.

Target: T1, LRP2 CR89 (UniProt P98164 1025-1102, limits assumed)
T1 construct: domain: CR89
T1 sequence (P98164 1025-1102 limits assumed): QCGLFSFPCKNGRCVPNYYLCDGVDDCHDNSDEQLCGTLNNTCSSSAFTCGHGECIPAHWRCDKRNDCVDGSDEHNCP
Assay: solid-phase binding, OD at highest concentration against highest OD of all ligands
measurement-label: % max (percent of maximum binding) (%)

binder | % max (percent of maximum binding) / %
MegaRAP1 d3 K217E (ligand, also called MegaRAP1 K217E) GLDRLRRVSHQGYTTEAEFEEPRVIDLWDLAQSANLTDKELEAFREELKYFKAKIEAHNHYQKQLEIAHEELRHAESVGDGERVSRSREKHALLEGRTKELGYTVKKHLQDLSGRISRARHNEL | 88
MegaRAP1 d3 A256K, E270K (ligand, also called MegaRAP1 A256K, E270K) GLDRLRRVSHQGYTTEAKFEEPRVIDLWDLAQSANLTDKELEAFREELKYFKAKIEKHNHYQKQLEIAHEKLRHAESVGDGERVSRSREKHALLEGRTKELGYTVKKHLQDLSGRISRARHNEL | 73
MegaRAP1 d3 (ligand, also called RAPv2A d3; RAP v2) GLDRLRRVSHQGYTTEAKFEEPRVIDLWDLAQSANLTDKELEAFREELKYFKAKIEAHNHYQKQLEIAHEELRHAESVGDGERVSRSREKHALLEGRTKELGYTVKKHLQDLSGRISRARHNEL | 88
MegaRAP1 d3 T213S (ligand, also called MegaRAP1 T213S) GLDRLRRVSHQGYSTEAKFEEPRVIDLWDLAQSANLTDKELEAFREELKYFKAKIEAHNHYQKQLEIAHEELRHAESVGDGERVSRSREKHALLEGRTKELGYTVKKHLQDLSGRISRARHNEL | 94
RAP d3 E251K (ligand, also called RAP E251K) GLDRLRRVSHQGYSTEAEFEEPRVIDLWDLAQSANLTDKELEAFREELKHFKAKIEKHNHYQKQLEIAHEKLRHAESVGDGERVSRSREKHALLEGRTKELGYTVKKHLQDLSGRISRARHNEL | 5

a = MegaRAP1 d3 K251E (ligand, also called MegaRAP1 K251E) GLDRLRRVSHQGYTTEAKFEEPRVIDLWDLAQSANLTDKELEAFREELKYFEAKIEAHNHYQKQLEIAHEELRHAESVGDGERVSRSREKHALLEGRTKELGYTVKKHLQDLSGRISRARHNEL
b = RAP d3 E251K, K270E (ligand, also called RAP E251K, K270E) GLDRLRRVSHQGYSTEAEFEEPRVIDLWDLAQSANLTDKELEAFREELKHFKAKIEKHNHYQKQLEIAHEELRHAESVGDGERVSRSREKHALLEGRTKELGYTVKKHLQDLSGRISRARHNEL
When a and b are compared, which has the higher number for % max (percent of maximum binding)? Give the label of your selection. a
(a: 11%, b: 2%)
